Reference for the values: the RNAGym collection of RNA variant scans (doi:10.1126/science.aae0568)

B1: tRNA (parent)
chain: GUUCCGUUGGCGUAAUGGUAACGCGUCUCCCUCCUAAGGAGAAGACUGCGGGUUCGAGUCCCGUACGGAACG

Variants of: B1
Experiment: yeast fitness relative to wild type (ratio to wild type); higher = fitter; tRNA-Arg(CCU), competitive growth, 37 C, YPD
Variants at the floor of the assay were thinned out.
Measurement Type: yeast fitness
Give bare numbers.

Example cases with answers are listed next.
[
  {
    "Variant Descriptor": "C11U A36G C46U",
    "Observed": 0.77
  },
  {
    "Variant Descriptor": "A36G A42C C49A",
    "Observed": 0.548
  },
  {
    "Variant Descriptor": "U35C C66G",
    "Observed": 0.657
  },
  {
    "Variant Descriptor": "U8A U13C C66U",
    "Observed": 0.607
  },
  {
    "Variant Descriptor": "A43G C49U",
    "Observed": 0.9
  },
  {
    "Variant Descriptor": "G12A G52C",
    "Observed": 0.668
  }
]

Let us examine a further case.
Asked: Tell me the measured yeast fitness of G44C G56A C66U , please.
Given back: 0.634
